Please provide measured normalized RNA/DNA level without ligand (log10) for the entries that follow.
B1: library; a variant is named by its letters at N, in order (parent)
chain: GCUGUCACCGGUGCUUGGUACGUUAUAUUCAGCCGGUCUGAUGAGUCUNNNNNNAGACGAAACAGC

- Variants of: B1
- Method Summary: normalized RNA/DNA level without ligand (relative to sTRSVctl = 100) (log10 (% of sTRSVctl)); HEK293T overexpressing SLC46A1; higher = less ribozyme self-cleavage, higher mRNA level
- Experimental Parameters: without (6R,S)-folinic acid; ligand present: no
Answers are plain numbers.

- Mutation List: "UGGGCA"
  Result Value: 1.96
- Mutation List: "GGUACA"
  Result Value: 2.07
- Mutation List: "UGCCGU"
  Result Value: 2.01
- Mutation List: "AUGUAG"
  Result Value: 1.86
- Mutation List: "UGUAUU"
  Result Value: 1.97

Give normalized RNA/DNA level without ligand (log10) for each listed item.
1. CAUCUG
2. GUACUA

1. 2.03
2. 2.05

Batch: normalized RNA/DNA level without ligand (log10) for all items listed.
1. CGGCGU
2. ACCGGG
3. UUCGGC

[2.05, 2.07, 2.04]

Okay, here is my list. What is normalized RNA/DNA level without ligand (log10) for each of these?
1. AAUUGC
2. CAUCAC
3. AAGGUC
4. UGGAGA
5. GCUGAC

2.01
2.03
2.03
1.83
1.99

Dear colleague, could you please provide normalized RNA/DNA level without ligand (log10) for the variants listed below?
1. AUUCCA
2. GCCUCG

[2.01, 2.03]

Give normalized RNA/DNA level without ligand (log10) for each listed item.
1. AGCGUU
2. UGCAAU
3. ACGAGC
4. AAUUCC
5. CGGUUA
6. CAACCG
7. CAUGGU

[2, 1.84, 2.01, 2.06, 1.99, 2.04, 1.9]

Batch request: normalized RNA/DNA level without ligand (log10) per item, same order as input.
1. AAAUUG
2. CAGACC
3. AAGGCA
4. CAAAAG
5. GCAAAC
6. GUUCUC

1: 1.92; 2: 2.04; 3: 2.01; 4: 1.9; 5: 1.97; 6: 2.11

Give one value of normalized RNA/DNA level without ligand (log10) per listed variant.
1. CUGUUA
2. GUCUAA
3. CAGCGC
4. GAGGGG

1.99
1.98
2.05
2.01

Give me normalized RNA/DNA level without ligand (log10) for each of these variants, listed below.
1. UCGCUG
2. GCCCAA
3. GGGACC

1. 2.01
2. 2.03
3. 2.05
